Provenance of the data: ChEMBL document CHEMBL4392822

SYSTEM_NAME: E. coli GroEL/ES (Escherichia coli)
pIC50: −log10 of the molar value. Counter-ions that a name gives are not always drawn.
Record Satisfied whenever pIC50 is at 5 or higher; record Not satisfied when lower.

Consider the following illustrative entries.
Q) Hi team, for CC[n+]1c(-c2ccccc2)c2cc(N)ccc2c2ccc(N)cc21 [HOMIDIUM BROMIDE] , is the recorded pIC50 at or above 5?
A) Not satisfied

Q) Same thing, different compound: "CCc1oc2ccccc2c1C(=O)c1cc(Br)c(O)c(Br)c1"
A) Not satisfied

Q) Same read-out for O=C1C=C2CC3(O)COc4c(ccc(O)c4O)C3=C2C=C1O (centres undefined) ?
A) Satisfied

Q) Now this one: "Oc1ccc(Cl)cc1Cc1cc(Cl)ccc1O"
A) Not satisfied

***
Q) Determine whether this compound has pIC50 no lower than 5: "CC1=C(/C=C/C(C)=C/C=C/C(C)=C/C(=O)O)C(C)(C)CCC1"
A) Satisfied

Q) What about this compound? "CC1(C)CCC2=C(O1)c1ccccc1C(=O)C2=O"
A) Satisfied

Q) Next compound: "CCOc1nc2cccc(C(=O)O)c2n1Cc1ccc(-c2ccccc2-c2nnn[nH]2)cc1"
A) Not satisfied

Q) Lookup "O=C1c2ccccc2C(=O)c2c(O)c(O)cc(O)c21"
A) Not satisfied

Q) Subsequent entry: CC(COc1ccccc1)N(CCCl)Cc1ccccc1 (centres undefined) [PHENOXYBENZAMINE HYDROCHLORIDE]
A) Not satisfied

###

SYSTEM_NAME: GroEL/GroES
Parameters: species or system Escherichia coli
Description: Inhibition of Escherichia coli GroEL expressed in Escherichia coli DH5alpha/Escherichia coli GroES expressed in Escherichia coli BL21 (DE3) assessed as reduction in GroEL/GroES-mediated denatured rhodanese refolding by measuring rhodanese enzyme activity after 45 mins by Fe(SCN)3 dye based spectrometric analysis
RECORDED_METRIC: IC50

Q) Requested field: IC50. Item: C=CC1=C(C)c2cc3[nH]c(cc4nc(cc5[nH]c(cc1n2)c(C)c5CCC(=O)O)C(CCC(=O)O)=C4C)c(C)c3C=C [PROTOPORPHYRIN]
A) 3 µM

###

This listing pairs compounds with measured pIC50.
SYSTEM_NAME: E. coli GroEL/ES (Escherichia coli, UniProt P0A6F5)
Sequence (P0A6F5 whole entry, looked up): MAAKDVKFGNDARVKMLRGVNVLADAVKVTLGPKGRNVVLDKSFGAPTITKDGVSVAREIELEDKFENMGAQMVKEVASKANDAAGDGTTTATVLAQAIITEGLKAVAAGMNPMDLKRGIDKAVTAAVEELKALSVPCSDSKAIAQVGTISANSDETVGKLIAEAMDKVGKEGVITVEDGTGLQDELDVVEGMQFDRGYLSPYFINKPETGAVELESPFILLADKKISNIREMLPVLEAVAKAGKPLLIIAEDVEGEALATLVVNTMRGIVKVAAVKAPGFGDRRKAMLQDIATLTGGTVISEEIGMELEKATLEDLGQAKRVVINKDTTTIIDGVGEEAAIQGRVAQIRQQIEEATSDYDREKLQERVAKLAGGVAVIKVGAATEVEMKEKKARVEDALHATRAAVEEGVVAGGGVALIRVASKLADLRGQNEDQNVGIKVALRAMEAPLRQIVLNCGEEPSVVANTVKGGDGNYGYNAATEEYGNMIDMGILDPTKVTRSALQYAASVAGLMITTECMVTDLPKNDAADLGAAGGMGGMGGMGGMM
Convention used: pIC50 is expressed as -log10 of the molar concentration.

Below, 5 compounds whose answers are already recorded.
Q) Look at this compound and give its reported pIC50. O=C(/C=C/c1ccccc1)c1ccc(O)cc1 [4'-HYDROXYCHALCONE]
A) 4.25

Q) What about this compound? "CC[C@H](C)[C@H]1O[C@]2(C=C[C@@H]1C)C[C@@H]1C[C@@H](C/C=C(\C)[C@@H](O[C@H]3C[C@H](OC)[C@@H](O[C@H]4C[C@H](OC)[C@@H](O)[C@H](C)O4)[C@H](C)O3)[C@@H](C)/C=C/C=C3\CO[C@@H]4[C@H](O)C(C)=C[C@@H](C(=O)O1)[C@]34O)O2"
A) 4.49

Q) Quick one: "C[C@H](CCC(=O)O)[C@H]1CC[C@H]2[C@@H]3CC[C@@H]4C[C@H](O)CC[C@]4(C)[C@H]3CC[C@]12C"
A) 4.23

Q) And the next one, "Cc1cc2c(C(C)C)c(O)c(O)c(C=O)c2c(O)c1-c1c(C)cc2c(C(C)C)c(O)c(O)c(C=O)c2c1O" ?
A) 6.37

Q) Request: "COc1ccc(C(=O)/C=C/c2ccccc2)cc1"
A) 4.52

More entries:
Q) Item "O=C1c2ccccc2C(=O)c2c(O)c(O)cc(O)c21" has what recorded pIC50?
A) 5.40

Q) Further, for CCCCCCCCCCCCCCCC(=O)OC[C@H](O)[C@H]1OC(=O)C(O)=C1O [ASCORBYL PALMITATE] ?
A) 5.07

###

Counter-ions that a name gives are not always drawn.
pIC50 tested on HSP60/HSP10 (Homo sapiens, UniProt P10809): recorded values
Sequence (P10809 whole entry): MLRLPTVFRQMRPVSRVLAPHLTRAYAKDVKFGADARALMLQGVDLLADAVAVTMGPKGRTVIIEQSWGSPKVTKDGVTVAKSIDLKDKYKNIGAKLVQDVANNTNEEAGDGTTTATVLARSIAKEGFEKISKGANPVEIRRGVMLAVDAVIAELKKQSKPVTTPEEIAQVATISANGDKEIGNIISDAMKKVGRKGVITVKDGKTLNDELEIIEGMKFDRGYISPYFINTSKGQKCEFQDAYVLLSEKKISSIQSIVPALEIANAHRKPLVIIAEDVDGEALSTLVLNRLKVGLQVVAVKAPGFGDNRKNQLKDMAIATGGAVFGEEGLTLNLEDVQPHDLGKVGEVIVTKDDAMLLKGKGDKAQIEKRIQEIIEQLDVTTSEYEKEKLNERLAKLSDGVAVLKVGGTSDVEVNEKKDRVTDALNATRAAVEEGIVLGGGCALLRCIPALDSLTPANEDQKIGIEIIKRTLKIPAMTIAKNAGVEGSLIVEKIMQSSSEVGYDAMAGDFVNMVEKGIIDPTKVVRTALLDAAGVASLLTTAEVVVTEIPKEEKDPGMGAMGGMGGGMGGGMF
Sequence (P61604 whole entry, further chain): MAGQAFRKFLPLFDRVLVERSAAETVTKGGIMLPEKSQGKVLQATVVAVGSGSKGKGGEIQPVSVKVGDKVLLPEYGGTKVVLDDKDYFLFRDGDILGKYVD
Reminder that pIC50 means the negative base-10 logarithm of the concentration expressed in mol/L.

Q) Any idea what pIC50 came out for "COc1ccc(-c2ccc3cc(C(=O)O)ccc3c2)cc1C12CC3CC(CC(C3)C1)C2" on HSP60/HSP10 (Homo sapiens, UniProt P10809)?
A) 5.64

Q) Now this one: "C=C1CC[C@H](O)C/C1=C/C=C1\CCC[C@]2(C)[C@@H]([C@H](C)/C=C/[C@H](C)C(C)C)CC[C@@H]12"
A) 4.35

Q) Entry to check: "C[C@H](CCC(=O)O)[C@H]1CC[C@H]2[C@@H]3CC[C@@H]4C[C@H](O)CC[C@]4(C)[C@H]3CC[C@]12C"
A) 5.00

For the next question, use this compound.
Q) Item: CC(COc1ccccc1)N(CCCl)Cc1ccccc1 (stereo unspecified) [PHENOXYBENZAMINE HYDROCHLORIDE] Test system: HSP60/HSP10 (Homo sapiens, UniProt P10809) Read-out: pIC50 Value: ?
A) 4.11

###

SYSTEM_NAME: HSP60/HSP10 (Homo sapiens, UniProt P10809);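 further: His-tagged human HSP60 with HSP10 refolding denatured MDH, read as MDH activity on mesoxalate by malachite green spectrometry, inhibition of refolding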
With a cut-off of 8 µM, any IC50 strictly below it is called Condition met; any IC50 meeting it or above is called Condition not met.

Q) Lab note: confirm whether the reported IC50 for this compound is below 8 µM, equality not counting. compound: "Cc1ccc(C(=O)Nc2ccc(S(=O)(=O)O)c3cc(S(=O)(=O)O)cc(S(=O)(=O)O)c23)cc1NC(=O)c1cccc(NC(=O)Nc2cccc(C(=O)Nc3cc(C(=O)Nc4ccc(S(=O)(=O)O)c5cc(S(=O)(=O)O)cc(S(=O)(=O)O)c45)ccc3C)c2)c1"
A) Condition met

Q) Moving on to "COc1ccc(C(=O)/C=C/c2ccccc2)cc1"
A) Condition not met

Q) Input "Cc1cc(-c2ccc(/N=N/c3ccc4c(S(=O)(=O)O)cc(S(=O)(=O)O)c(N)c4c3O)c(C)c2)ccc1/N=N/c1ccc2c(S(=O)(=O)O)cc(S(=O)(=O)O)c(N)c2c1O"
A) Condition met

Q) // next record "O=c1c(O)c(-c2ccc(O)c(O)c2)oc2c(O)c(O)cc(O)c12"
A) Condition met

Q) Can you handle "CC1=NCCc2c1[nH]c1cc(O)ccc21" next?
A) Condition not met

Q) Now this one: COc1cc(NC(C)CCCN)c2ncccc2c1 (configuration not stated)
A) Condition not met

Next:
Q) Bench note: check whether "C=C(CC)C(=O)c1ccc(OCC(=O)O)c(Cl)c1Cl" shows IC50 below 8 µM
A) Condition not met

###

Parameter 'readout' = IC50; parameter 'system' = Thiosulfate sulfurtransferase (Homo sapiens).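 Further: native rhodanese of unspecified species, enzyme activity read after 45 min by spectrophotometric detection of Fe(SCN)3 colour, IC50 reflects activity reduction.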
Sequence (Q16762 whole entry): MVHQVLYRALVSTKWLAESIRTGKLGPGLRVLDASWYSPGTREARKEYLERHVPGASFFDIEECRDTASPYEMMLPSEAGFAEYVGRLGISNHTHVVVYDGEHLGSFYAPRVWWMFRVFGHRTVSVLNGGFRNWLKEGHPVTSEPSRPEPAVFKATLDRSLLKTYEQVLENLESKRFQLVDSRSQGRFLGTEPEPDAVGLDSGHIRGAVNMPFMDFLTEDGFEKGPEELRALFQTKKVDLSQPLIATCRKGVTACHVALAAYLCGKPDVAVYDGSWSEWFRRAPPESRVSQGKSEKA

Q) Record request: IC50 value, item CCCCCCCCCCCCCCCCC(C(=O)O)C(O)(CC(=O)O)C(=O)O (centres undefined)
A) > 100 µM

###

SYSTEM_NAME: Chaperonin GroEL (Escherichia coli (strain K12), UniProt P0A6F5);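 further: inhibition of GroEL ATPase activity with ATP as substrate, 60 min incubation, spectrometric read-out, recombinant enzyme produced in Escherichia coli DH5alpha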
Reported IC50 values for the following molecules.

Q) # input molecule: CC1=CC(=O)c2ccccc2C1=O [MENADIONE] ; wanted: its IC50
A) > 250 µM

Q) Also, CC[C@H](C)C1O[C@]2(C=C[C@@H]1C)C[C@@H]1C[C@@H](C/C=C(\C)[C@@H](O[C@H]3C[C@H](OC)[C@@H](O[C@H]4C[C@H](OC)[C@H](NC(C)=O)[C@H](C)O4)[C@H](C)O3)[C@@H](C)/C=C/C=C3\CO[C@@H]4[C@H](O)C(C)=C[C@@H](C(=O)O1)[C@]34O)O2 (stereo not given in full) please.
A) > 250 µM

Q) CC1=CC(=O)c2c(O)cccc2C1=O [PLUMBAGIN] ?
A) > 250 µM

***
Q) Item O=C(OC[C@H]1O[C@@H](OC(=O)c2cc(O)c(O)c(OC(=O)c3cc(O)c(O)c(O)c3)c2)[C@H](OC(=O)c2cc(O)c(O)c(OC(=O)c3cc(O)c(O)c(O)c3)c2)[C@@H](OC(=O)c2cc(O)c(O)c(OC(=O)c3cc(O)c(O)c(O)c3)c2)[C@@H]1OC(=O)c1cc(O)c(O)c(OC(=O)c2cc(O)c(O)c(O)c2)c1)c1cc(O)c(O)c(OC(=O)c2cc(O)c(O)c(O)c2)c1 [TANNIC ACID] has what recorded IC50?
A) 137 µM

Q) And then CCCCCCCCCCCCCCCC(=O)OC[C@H](O)[C@H]1OC(=O)C(O)=C1O [ASCORBYL PALMITATE] , what is it?
A) 177 µM

###

SYSTEM_NAME: E. coli GroEL/ES (Escherichia coli, UniProt P0A6F5)
IC50 by entry:
Answer format: numeric, µM implied, no suffix.

These recorded examples may help you get a feel for the data.
Q) Param readout = IC50; param system = E. coli GroEL/ES (Escherichia coli, UniProt P0A6F5); param query = Oc1c(Cl)cc(Cl)cc1Sc1cc(Cl)cc(Cl)c1O [BITHIONOL] ; response: value
A) 13

Q) Note, next up: CCCCC/C=C\C/C=C\C/C=C\C/C=C\CCCC(=O)O [ARACHIDONIC ACID]
A) 18

Q) Repeat for the following compound: CCCCCCCCCc1ccc(O)cc1 [4-NONYLPHENOL]
A) 29

Q) Same question, CN(C)c1ccc(C(=C2C=CC(=[N+](C)C)C=C2)c2ccc(N(C)C)cc2)cc1 [GENTIAN VIOLET] this time
A) 15

Q) What do we get for CC[C@H](C)C1O[C@]2(C=C[C@@H]1C)C[C@@H]1C[C@@H](C/C=C(\C)[C@@H](O[C@H]3C[C@H](OC)[C@@H](O[C@H]4C[C@H](OC)[C@H](NC(C)=O)[C@H](C)O4)[C@H](C)O3)[C@@H](C)/C=C/C=C3\CO[C@@H]4[C@H](O)C(C)=C[C@@H](C(=O)O1)[C@]34O)O2 (stereo partly specified) ?
A) 38

Let us move to another entry and its IC50.
Q) Form field: IC50 recorded for CC(=O)O[C@H]1C(=O)[C@@]2(C)[C@H]([C@H](OC(=O)c3ccccc3)[C@]3(O)C[C@H](OC(=O)[C@H](O)[C@@H](NC(=O)c4ccccc4)c4ccccc4)C(C)=C1C3(C)C)[C@]1(OC(C)=O)CO[C@@H]1C[C@@H]2O [PACLITAXEL] with E. coli GroEL/ES (Escherichia coli, UniProt P0A6F5) (enter value)
A) 114
